# systemName: HLA-A*1501 (human)
# assaySummary: iTopia affinity
ED50 strictly less than 70 µM = rule met. Otherwise rule not met.

A selection of reference data follows.
MRQMLQSEH [cdr2 257-265 …] = rule not met
LQQDLQLAA [cdr2 24-32 …] = rule met
RQKRVTMEE [cdr2 213-221 …] = rule not met

stdin: Report whether reported ED50 is lower than 70 µM (strictly) for PSFACLKEL [cdr2 156-164 …]
stdout: rule met

stdin: Report whether reported ED50 is lower than 70 µM (strictly) for QQLGATGAY [cdr2 235-243 …]
stdout: rule met

stdin: Report whether reported ED50 is lower than 70 µM (strictly) for YDLRQHFVY [cdr2 165-173 …]
stdout: rule met
